Source: paper PMC12277872

Target: hMAO‐B (Homo sapiens, UniProt P27338)
Construct: purchased Sigma Aldrich M7441
Sequence (P27338 whole entry): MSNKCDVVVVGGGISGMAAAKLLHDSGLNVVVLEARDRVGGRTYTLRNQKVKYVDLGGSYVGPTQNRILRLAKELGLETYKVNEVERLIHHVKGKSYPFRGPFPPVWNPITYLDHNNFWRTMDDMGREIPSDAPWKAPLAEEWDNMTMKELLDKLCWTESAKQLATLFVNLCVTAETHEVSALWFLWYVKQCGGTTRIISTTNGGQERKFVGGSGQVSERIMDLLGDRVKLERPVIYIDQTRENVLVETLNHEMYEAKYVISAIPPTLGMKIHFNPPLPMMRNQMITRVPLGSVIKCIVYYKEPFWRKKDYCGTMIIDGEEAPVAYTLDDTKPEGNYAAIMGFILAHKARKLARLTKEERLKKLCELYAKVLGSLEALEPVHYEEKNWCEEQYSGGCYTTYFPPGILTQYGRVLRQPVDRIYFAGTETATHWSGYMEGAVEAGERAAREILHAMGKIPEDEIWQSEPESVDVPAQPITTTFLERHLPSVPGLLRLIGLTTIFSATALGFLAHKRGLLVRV
Test: In vitro fluorometric MAO-B inhibition assay (tyramine substrate, horseradish peroxidase coupling)
Format: biochemical
parameter-measured: IC50

>  <compound>
CCN(CC)c1ccc(/C=N/NC(=S)Nc2cccc(OC)c2)c(OS(=O)(=O)c2ccc3ccccc3c2)c1 [Compound 5k]

>  <tested-target>
hMAO‐B (Homo sapiens, UniProt P27338)

>  <IC50>
> 1000 nM

$$$$
>  <compound>
CCN(CC)c1ccc(/C=N/NC(=S)Nc2ccc(OC)cc2)c(OS(=O)(=O)c2ccc3ccccc3c2)c1 [Compound 5d]

>  <tested-target>
hMAO‐B (Homo sapiens, UniProt P27338)

>  <IC50>
406 nM

$$$$

We now examine a further compound.
Inquiry: Notebook: pull reported IC50 for hMAO‐B (Homo sapiens, UniProt P27338), entry CCN(CC)c1ccc(/C=N/NC(N)=S)c(OS(=O)(=O)c2ccc3ccccc3c2)c1 [Compound 5n]
Reply text: 396 nM

* * *

Molecular target: BChE from equine serum (Equus caballus)
Construct: C7512‐ BChE from equine serum; purchased Sigma Aldrich C7512; host or cells: equine serum
Sequence (P81908 whole entry): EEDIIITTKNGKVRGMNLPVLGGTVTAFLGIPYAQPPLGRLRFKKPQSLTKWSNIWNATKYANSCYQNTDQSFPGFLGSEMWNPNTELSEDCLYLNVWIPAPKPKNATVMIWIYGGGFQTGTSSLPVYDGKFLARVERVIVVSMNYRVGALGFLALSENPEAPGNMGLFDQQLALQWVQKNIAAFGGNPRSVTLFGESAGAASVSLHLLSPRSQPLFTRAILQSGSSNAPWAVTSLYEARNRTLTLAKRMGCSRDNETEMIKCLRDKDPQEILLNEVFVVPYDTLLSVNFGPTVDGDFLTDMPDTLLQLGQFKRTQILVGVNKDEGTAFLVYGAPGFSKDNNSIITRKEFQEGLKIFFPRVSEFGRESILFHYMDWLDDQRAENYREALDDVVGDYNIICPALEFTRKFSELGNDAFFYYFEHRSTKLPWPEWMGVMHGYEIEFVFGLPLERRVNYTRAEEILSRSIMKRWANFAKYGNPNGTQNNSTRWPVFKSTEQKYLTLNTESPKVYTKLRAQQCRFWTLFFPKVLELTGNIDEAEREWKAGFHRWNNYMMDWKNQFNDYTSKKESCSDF
Assay: biochemical
Details: read-out: K i (nM) BChE
Ki values for the compounds below.
Record the value in nM, omitting the unit from your answer.

>  <given-smiles>
CCN(CC)c1ccc(/C=N/NC(=S)Nc2ccccc2C)c(OS(=O)(=O)c2ccc3ccccc3c2)c1

>  <tested-target>
BChE from equine serum (Equus caballus)

>  <parameter-measured>
Ki

>  <endpoint-value>
249

$$$$
>  <given-smiles>
CCN(CC)c1ccc(/C=N/NC(=S)Nc2ccccc2C(F)(F)F)c(OS(=O)(=O)c2ccc3ccccc3c2)c1

>  <tested-target>
BChE from equine serum (Equus caballus)

>  <parameter-measured>
Ki

>  <endpoint-value>
136

$$$$
>  <given-smiles>
CCN(CC)c1ccc(/C=N/NC(=S)Nc2c(C)cccc2C)c(OS(=O)(=O)c2ccc3ccccc3c2)c1

>  <tested-target>
BChE from equine serum (Equus caballus)

>  <parameter-measured>
Ki

>  <endpoint-value>
228

$$$$
>  <given-smiles>
CCN(CC)c1ccc(/C=N/NC(=S)Nc2cccc(OC)c2)c(OS(=O)(=O)c2ccc3ccccc3c2)c1

>  <tested-target>
BChE from equine serum (Equus caballus)

>  <parameter-measured>
Ki

>  <endpoint-value>
205

$$$$

Inquiry: Param readout = Ki; param system = BChE from equine serum (Equus caballus); param query = `CCN(CC)c1ccc(/C=N/NC(=S)NCCc2ccccc2)c(OS(=O)(=O)c2ccc3ccccc3c2)c1` ; response: value
Reply text: 227

Inquiry: `CCN(CC)c1ccc(/C=N/NC(=S)Nc2cccc(Cl)c2)c(OS(=O)(=O)c2ccc3ccccc3c2)c1` ?
Reply text: 195

Inquiry: Item: `CCN(CC)c1ccc(/C=N/NC(=S)Nc2ccc(F)cc2)c(OS(=O)(=O)c2ccc3ccccc3c2)c1`
Reply text: 182

* * *

Overview of reported IC50 across a group of compounds:
Target: BChE from equine serum (Equus caballus)
Construct: C7512‐ BChE from equine serum; purchased Sigma Aldrich C7512; host or cells: equine serum
Assay: biochemical
Conditions: BChI substrate, DTNB, 412 nm, Tris/HCl pH 8.0
Answer format reminder: number followed by unit.

>  <given-smiles>
CCN(CC)c1ccc(/C=N/NC(=S)Nc2ccc(F)cc2)c(OS(=O)(=O)c2ccc3ccccc3c2)c1

>  <IC50>
200 nM

$$$$

Inquiry: # IC50 lookup, item `CCN(CC)c1ccc(/C=N/NC(=S)Nc2cccc(Cl)c2)c(OS(=O)(=O)c2ccc3ccccc3c2)c1`
Reply text: 208 nM

Inquiry: Can you handle `CCN(CC)c1ccc(/C=N/NC(=S)NCc2ccccc2)c(OS(=O)(=O)c2ccc3ccccc3c2)c1` next?
Reply text: 220 nM

Inquiry: Same question, `CCN(CC)c1ccc(/C=N/NC(=S)Nc2c(Cl)cccc2Cl)c(OS(=O)(=O)c2ccc3ccccc3c2)c1` this time
Reply text: 148 nM

Inquiry: Can you handle `CCN(CC)c1ccc(/C=N/NC(=S)Nc2cccc([N+](=O)[O-])c2)c(OS(=O)(=O)c2ccc3ccccc3c2)c1` next?
Reply text: 192 nM

Inquiry: Try `CCN(CC)c1ccc(/C=N/NC(=S)Nc2ccc(Br)cc2)c(OS(=O)(=O)c2ccc3ccccc3c2)c1` next.
Reply text: 202 nM

Inquiry: Also need `CCN(CC)c1ccc(/C=N/NC(=S)NCCc2ccccc2)c(OS(=O)(=O)c2ccc3ccccc3c2)c1` , thanks.
Reply text: 271 nM

Inquiry: Another compound to check: `CCN(CC)c1ccc(/C=N/NC(=S)NCC(C)C)c(OS(=O)(=O)c2ccc3ccccc3c2)c1`
Reply text: 254 nM
